system: SPN 49619; assay: MIC, broth microdilution (CLSI), substance alone or ATB combined with compound at 4 or 8 μg/mL; assay type: cell-based, S. pneumoniae; details: ATB PIP; compound @8 μg/ml; SPN 49619
recorded.metric: MIC ATB combined with compound

Guide cases for MIC ATB combined with compound, answers given:
(Q) // fetch MIC ATB combined with compound; item: NC[C@H]1C=C(c2cnco2)[C@@H]2CN1C(=O)N2OS(=O)(=O)[O-].O=C(O)C(F)(F)F.[Na+] (relative stereo) ; system: SPN 49619
(A) 0.5 µg/mL

(Q) // fetch MIC ATB combined with compound; item: O=C1N2CC(c3ncco3)=CC(C2)N1OC(F)(F)C(=O)O (centres unmarked) ; system: SPN 49619
(A) 0.5 µg/mL

(Q) // fetch MIC ATB combined with compound; item: NCCn1c2c(sc1=O)C1CN(C2)C(=O)N1OS(=O)(=O)[O-].[Na+] (centres unmarked) ; system: SPN 49619
(A) <0.031 µg/mL

---
(Q) // fetch MIC ATB combined with compound; item: O=C(O)C(F)(F)F.O=C1N2C[C@H](c3scnc3[C@H]2c2ncc[nH]2)N1OS(=O)(=O)[O-].[Na+] (relative stereo) ; system: SPN 49619
(A) <0.031 µg/mL

(Q) // fetch MIC ATB combined with compound; item: O=C1N2CC(c3cccnc3)=CC(C2)N1OS(=O)(=O)[O-].[Na+] (centres unmarked) ; system: SPN 49619
(A) <0.031 µg/mL

---

test system: KPN UFR42; assay: MIC, broth microdilution (CLSI), substance alone or ATB combined with compound at 4 or 8 μg/mL; assay type: cell-based, K. pneumoniae; conditions: ATB FEP; KPN UFR42; Example @8 μg/ml
recorded.metric: MIC ATB combined with Example

(Q) Name the recorded MIC ATB combined with Example of the compound listed here: O=C1N2CC(n3ccnn3)=CC(C2)N1OS(=O)(=O)[O-].[Na+] (centres unmarked)
(A) <0.031 µg/mL

(Q) Name the recorded MIC ATB combined with Example of the compound listed here: O=C1N2CC(n3cncn3)=CC(C2)N1OS(=O)(=O)[O-].[Na+] (centres unmarked)
(A) <0.031 µg/mL

(Q) Name the recorded MIC ATB combined with Example of the compound listed here: O=C1N2CC(n3cccn3)=CC(C2)N1OS(=O)(=O)[O-].[Na+] (centres unmarked)
(A) <0.031 µg/mL

(Q) Name the recorded MIC ATB combined with Example of the compound listed here: O=C1N2CC(n3cccn3)=CC(C2)N1OC(F)(F)C(=O)[O-].[Li+] (centres unmarked)
(A) <=0.031 μg/mL

Then this compound:
(Q) Name the recorded MIC ATB combined with Example of the compound listed here: NCCCn1c2c(sc1=O)C1CN(C2)C(=O)N1OS(=O)(=O)O (centres unmarked)
(A) <=0.031 μg/mL

---

tested on: KPN UFR42; assay: MIC, broth microdilution (CLSI), substance alone or ATB combined with compound at 4 or 8 μg/mL; type: cell-based, K. pneumoniae; details: MIC of CIP; compound @8 μg/ml; KPN UFR42
# Lookup of reported MIC ATB combined with Example compound keyed by entry

Guide cases for MIC ATB combined with Example compound, answers given:
(Q) Name the recorded MIC ATB combined with Example compound of the compound listed here: O=C1N2CC(n3cccn3)=CC(C2)N1OS(=O)(=O)[O-].[Na+] (stereo not drawn) [Example 11]
(A) 32 µg/mL

(Q) Name the recorded MIC ATB combined with Example compound of the compound listed here: O=C1N2CC(n3ccnn3)=CC(C2)N1OS(=O)(=O)[O-].[Na+] (stereo not drawn) [Example 12]
(A) <0.031 µg/mL

---
(Q) Name the recorded MIC ATB combined with Example compound of the compound listed here: O=C1N2CC(n3cncn3)=CC(C2)N1OS(=O)(=O)[O-].[Na+] (stereo not drawn) [Example 14]
(A) <0.031 µg/mL

(Q) Name the recorded MIC ATB combined with Example compound of the compound listed here: O=C1N2CC(n3cccn3)=CC(C2)N1OC(F)(F)C(=O)[O-].[Li+] (stereo not drawn) [Example 13]
(A) >32 µg/mL

(Q) Name the recorded MIC ATB combined with Example compound of the compound listed here: O=C1N2CC(c3ncco3)=CC(C2)N1OC(F)(F)C(=O)O (stereo not drawn) [Example 7]
(A) >32 µg/mL

(Q) Name the recorded MIC ATB combined with Example compound of the compound listed here: NC[C@H]1C=C(c2cnco2)[C@@H]2CN1C(=O)N2OS(=O)(=O)[O-].O=C(O)C(F)(F)F.[Na+] (relative stereo) [Example 1]
(A) >32 µg/mL
